- target: T1, recombinant human PD-L1-His (human, UniProt Q9NZQ7 19-238)
- T1 construct: Analyte of the BLI assay; also called hPD-L1
- T1 sequence (Q9NZQ7 19-238): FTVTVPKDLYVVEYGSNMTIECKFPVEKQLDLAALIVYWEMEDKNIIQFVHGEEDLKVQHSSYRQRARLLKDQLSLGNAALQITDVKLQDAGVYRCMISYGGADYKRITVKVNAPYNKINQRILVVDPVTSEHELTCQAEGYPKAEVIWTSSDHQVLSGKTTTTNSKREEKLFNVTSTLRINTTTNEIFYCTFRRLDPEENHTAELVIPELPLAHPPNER
- experiment_summary: BLI (Octet RED96), antibody captured on AHC biosensor, PD-L1-His in solution, 1:1 model;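 also: rates obtained by 1:1 Langmuir fitting of the binding response, using a 2.5 min association phase then a 5 min dissociation phase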
quantity: koff (s⁻¹)
Supply the numeric figure in s⁻¹, leaving out any unit text.

binder	koff / s⁻¹
PHS102.YP11F (antibody, human IgG1, kappa, N297A, V domains shown, full-length human IgG1-N297A / kappa) VH: EVQLVESGGGLVQPGGSLRLSCAASGFTIDNTYIHWVRQAPGKGLEWVARIDPVSGRTRYADSVKGRFTISADTSKNTADLQMNSLRAEDTAVYYCARAFSWFPDYWGQGTLVTVSS VL: DIQMTQSPSSLSASVGDRVTITCRAGQDVYKAVAWYQQKPGKAPKLLIYWSTNLYSGVPSRFSGSGSGTDFTLTISSLQPEDFATYYCQQFGATPITFGQGTKVEIKR	0.000615
PHS102.HSYPP411C (antibody, human IgG1, kappa, N297A, V domains shown, full-length human IgG1-N297A / kappa) VH: EVQLVESGGGLVQPGGSLRLSCAASGFTIDNTYIHWVRQAPGKGLEWVARIDPANGKTTYADSVKGRFTISADTSKNTANLQMNSLRAEDTAVYYCARSFSWWADYWGQGTLVTVSS VL: DIQMTQSPSSLSASVGDRVTITCRAGQDVYKAVAWYQQKPGKAPKLLIYWSTNLYSGVPSRFSGSGSGTDFTLTISSLQPEDFATYYCQQFNLQPTTFGQGTKVEIKR	0.000653

Exercise: Name the recorded koff of the binder listed here: PHS102.HSYPP31F (antibody, human IgG1, kappa, N297A, V domains shown, full-length human IgG1-N297A / kappa) VH: EVQLVESGGGLVQPGGSLRLSCAASGFTIEDSYIHWVRQAPGKGLEWVARIDPITGLTHYADSVKGRFTISADTSKNTAYLQMNSLRAEDTAVYYCARAFSWFPDYWGQGTLVTVSS VL: DIQMTQSPSSLSASVGDRVTITCRAGQDVYKAVAWYQQKPGKAPKLLIYWSTNLYSGVPSRFSGSGSGTDFTLTISSLQPEDFATYYCQQIMEPPVTFGQGTKVEIKR
Key: 0.000542
